- test-target: HLA-C*04:01
- test: IEDB peptide-MHC binding, purified MHC/competitive/fluorescence; filed as Kd, often an IC50 or EC50 that approximates it; bounds were set here for any values at or beyond the usual limits of such assays
- stated-conditions: source organism: Cryptosporidium parvum Iowa II
pKd: −log10 of the molar value.
measure-name: pKd

{"sequence-input": "VGYYTFHPK", "measure-name": "pKd", "recorded-value": "≤ 5.30"}

---

- test-target: HLA-B*08:01
- test: IEDB peptide-MHC binding, purified MHC/direct/fluorescence; filed as Kd, often an IC50 or EC50 that approximates it; bounds were set here for any values at or beyond the usual limits of such assays
- stated-conditions: source organism: Serratia marcescens
pKd: −log10 of the molar value.
measure-name: pKd

{"sequence-input": "LIPDGDGEV", "recorded-value": "≤ 4.70"}

Ref: the Immune Epitope Database (IEDB)
